Let's look at some binders and their measured BT-474 proliferation IC50.
- Study system: Human HER3, endogenous, on human cancer cell lines (SK-Br-3, MCF7, BT-474) (human, UniProt P21860 20-1342)
- Sequence (P21860 20-1342): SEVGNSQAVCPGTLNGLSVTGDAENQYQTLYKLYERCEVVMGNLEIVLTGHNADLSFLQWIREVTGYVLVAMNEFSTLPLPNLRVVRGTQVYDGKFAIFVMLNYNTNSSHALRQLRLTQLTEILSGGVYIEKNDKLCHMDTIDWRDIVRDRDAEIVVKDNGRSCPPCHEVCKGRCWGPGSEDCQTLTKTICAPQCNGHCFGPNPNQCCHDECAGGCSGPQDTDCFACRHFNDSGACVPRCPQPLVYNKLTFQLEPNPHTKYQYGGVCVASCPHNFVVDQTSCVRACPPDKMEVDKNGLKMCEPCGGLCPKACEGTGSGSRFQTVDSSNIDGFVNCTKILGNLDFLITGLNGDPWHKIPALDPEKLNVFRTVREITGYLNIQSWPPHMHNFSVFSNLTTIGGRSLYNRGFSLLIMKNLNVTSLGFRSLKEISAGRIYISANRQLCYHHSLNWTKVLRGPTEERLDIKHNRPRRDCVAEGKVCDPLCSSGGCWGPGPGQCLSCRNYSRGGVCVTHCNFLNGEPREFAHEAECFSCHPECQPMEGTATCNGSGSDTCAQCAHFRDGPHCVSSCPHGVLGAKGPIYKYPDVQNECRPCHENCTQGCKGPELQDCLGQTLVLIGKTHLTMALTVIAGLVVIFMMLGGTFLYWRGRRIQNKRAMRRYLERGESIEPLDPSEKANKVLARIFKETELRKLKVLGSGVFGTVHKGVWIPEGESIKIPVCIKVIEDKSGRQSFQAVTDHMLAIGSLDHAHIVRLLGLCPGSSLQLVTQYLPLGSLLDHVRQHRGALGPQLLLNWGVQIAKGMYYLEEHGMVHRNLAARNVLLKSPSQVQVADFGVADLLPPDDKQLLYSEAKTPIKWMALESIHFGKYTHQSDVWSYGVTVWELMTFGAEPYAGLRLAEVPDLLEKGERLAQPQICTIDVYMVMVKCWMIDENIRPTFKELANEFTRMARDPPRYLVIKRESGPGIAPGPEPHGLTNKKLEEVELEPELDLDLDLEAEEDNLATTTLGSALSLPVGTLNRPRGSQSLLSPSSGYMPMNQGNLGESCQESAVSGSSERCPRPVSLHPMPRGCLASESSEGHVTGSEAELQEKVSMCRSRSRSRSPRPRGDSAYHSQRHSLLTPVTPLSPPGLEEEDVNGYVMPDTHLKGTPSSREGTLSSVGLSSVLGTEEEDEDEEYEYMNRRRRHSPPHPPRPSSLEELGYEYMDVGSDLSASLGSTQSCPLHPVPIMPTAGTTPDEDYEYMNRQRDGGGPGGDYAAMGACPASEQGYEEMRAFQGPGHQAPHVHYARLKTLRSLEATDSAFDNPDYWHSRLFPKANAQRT
- Test summary: cell-based or functional assay
Just the number please, in nM, no unit attached.

>  <Binder>
MOR13869 (antibody, human IgG1, kappa, V domains shown, tested as IgG) VH: QVQLVQSGAEVKKPGESLKISCKGSGYSFSNYWIAWVRQMPGKGLEWMGIIYPGGSDTIYSPSFQGQVTISADKSISTAYLQWSSLKASDTAMYYCARVHIIQPPSAWSYNAMDVWGQGTLVTVSS VL: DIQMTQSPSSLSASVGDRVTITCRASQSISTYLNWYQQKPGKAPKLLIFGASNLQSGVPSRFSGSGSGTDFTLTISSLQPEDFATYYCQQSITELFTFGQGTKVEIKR

>  <Unit text>
nM

>  <BT-474 proliferation IC50>
10.6

$$$$

# evaluate next
Any idea what BT-474 proliferation IC50 was measured for MOR13867 (antibody, human IgG1, kappa, V domains shown, tested as IgG) VH: QVQLVQSGAEVKKPGESLKISCKGSGYSFSNYWIAWVRQMPGKGLEWMGIIYPGQSDTIYSPSFQGQVTISADKSISTAYLQWSSLKASDTAMYYCARVHIIQPPSAWSYNAMDVWGQGTLVTVSS VL: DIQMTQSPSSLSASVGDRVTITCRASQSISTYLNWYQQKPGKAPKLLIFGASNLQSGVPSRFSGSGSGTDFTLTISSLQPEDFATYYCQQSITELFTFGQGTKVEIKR ? 0.376
